- Test system: F380Y/beta2Delta
- method_notes: modulators of BK channel variants, profiling panel, selectivity assay, cell-based, U2OS BacMam, thallium flux, beta subunits (AID 1259406);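 note: initial slope of Thallos dye fluorescence rise after thallium is added; log ratio against the mean of 0.3% DMSO vehicle wells on the same plate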
- measurement_setup: at 30 µM
measurement_kind: log fold change Tl+ flux
Please respond with just the number, no unit label.

| compound | experimental_system | log fold change Tl+ flux |
| --- | --- | --- |
| CC(C)c1ccc2c(c1)c(SC(C)(C)C)c(CC(C)(C)C(=O)O)n2Cc1ccc(Cl)cc1 | F380Y/beta2Delta | 0.0246 |
| O=C(NC(=O)c1ccccc1Oc1ccc(Cl)cc1Cl)Nc1cc(Cl)cc(Cl)c1 | F380Y/beta2Delta | -0.00408 |
| Cc1ccccc1C=C1N=C(c2ccccc2)OC1=O | F380Y/beta2Delta | 0.0497 |

Enquiry: Given the entry Cc1nnc(SCC2=C(C(=O)O)N3C(=O)C(NC(=O)Cn4cnnn4)C3SC2)s1 (stereo unspecified) , report its measured log fold change Tl+ flux.
Return: 0.025

Enquiry: Now the same for CC(=NO)c1ccc2c(c1)C(C)(C)CCC2(C)C
Return: -0.444

Enquiry: Now the same for Cc1ccc(C(=O)CC(=CC(=C(C#N)c2ccc([N+](=O)[O-])cc2)c2ccc(C)cc2)c2ccccc2)cc1
Return: -0.0182

Enquiry: Now the same for C[C@@H](c1ncncc1F)[C@](O)(Cn1cncn1)c1ccc(F)cc1F
Return: 0.0265

Enquiry: Now the same for COc1ccc(CNCc2cc(OC)c(OC)c(OC)c2)cc1
Return: -0.0785

Enquiry: Now the same for N#CC1=C(Nc2ccccc2Cl)SC(c2ccncc2)NC1=O (stereo unspecified)
Return: 0.0198

Enquiry: Now the same for O=C1c2ccccc2NC(c2cc(Cl)cc(Cl)c2O)N1Cc1cccnc1 (stereo unspecified)
Return: 0.0333

Enquiry: Now the same for Cc1c(C)c(C)c(C(=O)c2ccccc2C(=O)NN)c(C)c1C
Return: 0.00841

* * *

Quick reference: fluorescence ratio of the listed items.
- method_notes: Cy5 fluorescence interference with SSB-bound oligo, artefact control for HCV NS3 helicase inhibitor project, biochemical, NIH Clinical Collection, E. coli SSB (AID 743268)
Please respond with just the number, no unit label.

| compound | observed_result |
| --- | --- |
| CC(Cc1ccc(O)c(O)c1)(NN)C(=O)O (stereo unspecified) | 1.04 |
| COc1ccnc(CS(=O)c2nc3cc(OC(F)F)ccc3[nH]2)c1OC (stereo unspecified) | 1.07 |
| CC(=O)SCC(Cc1ccccc1)C(=O)NCC(=O)OCc1ccccc1 (stereo unspecified) | 0.96 |
| CC(=O)C1(O)CCC2C3CC(C)C4=CC(=O)C=CC4(C)C3(F)C(O)CC21C (stereo unspecified) | 1.07 |
| O=C1N[C@H](C(=O)O)CS1 | 1.02 |
| CCC(C)n1ncn(-c2ccc(N3CCN(c4ccc(OCC5COC(Cn6cncn6)(c6ccc(Cl)cc6Cl)O5)cc4)CC3)cc2)c1=O (stereo unspecified) | 0.99 |

Switching to the query record.
Enquiry: Given the entry COCCCCC(=NOCCN)c1ccc(C(F)(F)F)cc1 , report its measured fluorescence ratio.
Return: 0.97

* * *

- method_notes: antimalarial activity against Dd2 strain (AID 2302);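 note: 0% = DMSO untreated growth and 100% = chloroquine plus artemisinin killed control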
- measurement_setup: P. falciparum Dd2 in RBCs, LDH growth readout, 72 h; at 2 µM; stronger effect = higher value
measurement_kind: growth inhibition (%)
Give a bare numeral; the unit % is implied.

Use the examples below as a reference point.
| compound | unit_descriptor | growth inhibition |
| --- | --- | --- |
| COc1ccc(-c2cnc3ccc(NC4CCC(O)CC4)nn23)cn1 (stereo not given) | % | 73 |
| Cc1cc(N[C@@H](Cc2ccccc2)C(=O)Nc2ccccc2)nc(NCC2CCCCC2)n1 | % | 55 |
| Cc1ccc(NC(=O)Nc2ccccc2F)cc1-c1ccc(C(=O)Nc2ccncc2)cc1 | % | 54 |
| COc1ccc(CNCc2ccc(-c3cccc(-c4nc5ccccc5[nH]4)c3)cc2)cc1 | % | 85 |
| CCN(Cc1cccc2ccccc12)c1ccc2nc(N)nc(N)c2c1 | % | 100 |

Enquiry: Given the entry Cc1c(F)cc(C(=O)NC2CC2)cc1-c1ccc2c(cnn2S(=O)(=O)c2cccs2)c1 , report its measured growth inhibition.
Return: 68

Enquiry: Now the same for CCCCNc1c(CC)c(C)c(C#N)c2nc3ccccc3n12
Return: 100

Enquiry: Now the same for CC(C)C(C(=O)n1cc2c(ccc3nc(N)nc(N)c32)n1)C(C)C
Return: 49

Enquiry: Now the same for CC1CCc2sc(-c3nnc(SC(C)C(=O)N4CCCC4)o3)cc2C1 (stereo not given)
Return: 94

Enquiry: Now the same for Cn1nc(C(F)(F)F)c(-c2ccc(F)cc2)c1NC(=O)Nc1ccccc1
Return: 99
